meta.source: patent US8436186B2

- system-name: SphK1 (Homo sapiens, UniProt Q9NYA1)
- Sequence (Q9NYA1 whole entry): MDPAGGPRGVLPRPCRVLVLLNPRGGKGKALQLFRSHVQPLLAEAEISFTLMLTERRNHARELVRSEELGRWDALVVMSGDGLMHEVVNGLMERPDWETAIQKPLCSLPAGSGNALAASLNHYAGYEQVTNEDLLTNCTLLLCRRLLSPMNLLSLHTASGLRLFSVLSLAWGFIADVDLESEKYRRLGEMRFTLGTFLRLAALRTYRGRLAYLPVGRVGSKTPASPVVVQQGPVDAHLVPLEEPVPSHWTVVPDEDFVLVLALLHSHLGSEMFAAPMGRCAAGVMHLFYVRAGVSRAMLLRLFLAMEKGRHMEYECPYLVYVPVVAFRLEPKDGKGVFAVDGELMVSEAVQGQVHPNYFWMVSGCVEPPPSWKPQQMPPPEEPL
pIC50: −log10 of the molar value.
readout-kind: pIC50

# count of solved cases: 5
molecule	system-name	result
CC1(C)CCC(C)(C)c2cc(-c3csc(C4CCN(C[C@H](O)CO)CC4)n3)ccc21 [Compound A22]	SphK1 (Homo sapiens, UniProt Q9NYA1)	6.00 to 8.00
CCN1CCC(c2nc(-c3ccc4c(c3)C(C)(C)CCC4(C)C)cs2)CC1 [Compound A34]	SphK1 (Homo sapiens, UniProt Q9NYA1)	6.00 to 8.00
OC[C@H](O)CN1CCC(c2nc(-c3ccc4c(c3)CCCC4)cs2)CC1 [Compound A15]	SphK1 (Homo sapiens, UniProt Q9NYA1)	5.00 to 6.00
CC1(C)CCC(C)(C)c2cc(-c3csc(C4CCN(C(=O)NCCc5ccccn5)CC4)n3)ccc21 [Compound A43]	SphK1 (Homo sapiens, UniProt Q9NYA1)	5.00 to 6.00
CC1(C)CCC(C)(C)c2cc(-c3csc(C4CCN(C(=O)OCCN5CCCC5)CC4)n3)ccc21 [Compound A49]	SphK1 (Homo sapiens, UniProt Q9NYA1)	< 5.00

Input CC1(C)CCCc2ccc(-c3csc(C4CCNCC4)n3)cc21 [Compound C3] , output reported pIC50.
6.00 to 8.00

Input CN(C)CCN1CCC(c2nc(-c3ccc4c(c3)CCCC4)cs2)CC1 [Compound A6] , output reported pIC50.
< 5.00
